All figures here come from ChEMBL document CHEMBL1129407.

pIC50: −log10 of the molar value.
A short record of pIC50 observed with UniProt Q64264 follows.
Sequence (Q64264 whole entry): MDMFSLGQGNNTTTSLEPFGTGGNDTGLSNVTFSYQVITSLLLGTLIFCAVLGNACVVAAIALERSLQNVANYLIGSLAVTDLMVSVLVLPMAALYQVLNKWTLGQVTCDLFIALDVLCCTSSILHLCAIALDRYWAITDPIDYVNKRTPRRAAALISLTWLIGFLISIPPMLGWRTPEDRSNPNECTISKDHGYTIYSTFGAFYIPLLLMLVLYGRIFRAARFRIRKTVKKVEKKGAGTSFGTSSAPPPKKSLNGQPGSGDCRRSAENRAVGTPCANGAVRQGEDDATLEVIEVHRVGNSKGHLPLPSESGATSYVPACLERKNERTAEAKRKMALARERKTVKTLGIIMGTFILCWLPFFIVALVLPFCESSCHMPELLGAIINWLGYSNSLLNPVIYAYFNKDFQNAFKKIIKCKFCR
endpoint: pIC50

The cases that follow already have their pIC50 on record.
O=C(NCCCCN1CCN(c2nsc3ccccc23)CC1)c1cccc2cccnc12 8.37
Cc1nc2n(c(=O)c1CCN1CCC(c3noc4cc(F)ccc34)CC1)CCCC2 6.37
O=C(NCCCCN1CCN(c2nsc3ccccc23)CC1)c1cccnc1 8.31

A: Nc1cccnc1C(=O)NCCCCN1CCN(c2nsc3ccccc23)CC1
B: O=C(NCCCCN1CCN(c2nsc3ccccc23)CC1)c1ccncc1
(Q) Which has the higher pIC50, A or B ? Identify your pick by its label.
(A) A
(A: 8.42, B: 8.18)
